Data provenance: patent US9340554B2

Experimental system: IRAK4 (Homo sapiens, UniProt Q9NWZ3)
Construct: purchased CARNA Bioscience 09-145
Sequence (Q9NWZ3 whole entry): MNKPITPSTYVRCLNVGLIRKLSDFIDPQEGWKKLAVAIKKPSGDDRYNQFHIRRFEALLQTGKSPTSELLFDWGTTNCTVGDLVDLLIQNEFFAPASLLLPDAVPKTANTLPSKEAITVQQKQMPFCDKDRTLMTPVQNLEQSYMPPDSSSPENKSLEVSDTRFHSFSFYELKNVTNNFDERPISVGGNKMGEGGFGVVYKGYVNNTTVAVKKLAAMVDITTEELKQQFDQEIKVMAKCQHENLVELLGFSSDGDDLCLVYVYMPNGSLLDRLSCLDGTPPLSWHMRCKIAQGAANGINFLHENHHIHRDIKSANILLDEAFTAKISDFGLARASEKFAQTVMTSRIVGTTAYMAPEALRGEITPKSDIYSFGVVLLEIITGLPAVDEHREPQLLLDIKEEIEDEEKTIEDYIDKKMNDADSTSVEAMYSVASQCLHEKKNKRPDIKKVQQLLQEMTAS
Assay explanation: IRAK-4 activity inhibition assay (Caliper, Peptide 8, 37 μM ATP)
Format: biochemical
Experimental parameters: 3.5 nM IRAK4, 1.5 μM Peptide 8, 37 μM ATP, 28° C. 40 minutes; read-out: IRAK-4 activity inhibition IC50
Reported property: IC50

- Molecule: "CCC1CCc2c(sc3ncnc(N4CCC(C(N)=O)CC4)c23)C1 (centres unmarked) [Compound I-17]"
  Reported property: "IC50"
  Obs value: "5 to 20 µM"
- Molecule: "CN(Cc1ccc(C(N)=O)cc1)[C@H]1CC[C@H](Nc2ncnc3sc4c(c23)CCC4)CC1 [Compound I-164]"
  Reported property: "IC50"
  Obs value: "< 5 µM"
- Molecule: "CC1(C)CCc2sc3ncnc(N[C@H]4CC[C@H](O)CC4)c3c2C1 [Compound I-43]"
  Reported property: "IC50"
  Obs value: "5 to 20 µM"
- Molecule: "O=C(CN(CC(=O)N1CCCC1)[C@H]1CC[C@H](Oc2ncnc3sc4c(c23)CCC4)CC1)N1CCCC1 [Compound I-137]"
  Reported property: "IC50"
  Obs value: "5 to 20 µM"
- Molecule: "CN(CC(=O)Nc1cccnc1)[C@H]1CC[C@H](Nc2ncnc3sc4c(c23)CCC4)CC1 [Compound I-126]"
  Reported property: "IC50"
  Obs value: "< 5 µM"
- Molecule: "CC(=O)N[C@H]1CC[C@H](Nc2ncnc3sc4c(c23)CCC4)CC1 [Compound I-11]"
  Reported property: "IC50"
  Obs value: "5 to 20 µM"
- Molecule: "O[C@H]1CC[C@H](Nc2ncnc3sc4c(c23)CCC4)CC1 [Compound I-7]"
  Reported property: "IC50"
  Obs value: "5 to 20 µM"
- Molecule: "CN(CC(=O)Nc1ccccc1)[C@H]1CC[C@H](Nc2ncnc3sc4c(c23)CCC4)CC1 [Compound I-114]"
  Reported property: "IC50"
  Obs value: "< 5 µM"
- Molecule: "c1nc(NC2CCOCC2)c2c3c(sc2n1)CCC3 [Compound I-8]"
  Reported property: "IC50"
  Obs value: "20 to 50 µM"
- Molecule: "CN(Cc1ccccc1)[C@H]1CC[C@H](Nc2ncnc3sc4c(c23)CCC4)CC1 [Compound I-151]"
  Reported property: "IC50"
  Obs value: "< 5 µM"
- Molecule: "CN(Cc1cccc(C(=O)O)c1)[C@H]1CC[C@H](Nc2ncnc3sc4c(c23)CCC4)CC1 [Compound I-167]"
  Reported property: "IC50"
  Obs value: "< 5 µM"
- Molecule: "CN(C)[C@H]1CC[C@H](COc2ncnc3sc4c(c23)CCC4)CC1 [Compound I-148]"
  Reported property: "IC50"
  Obs value: "20 to 50 µM"
- Molecule: "CN(CC(=O)NCc1ccccc1)[C@H]1CC[C@H](Nc2ncnc3sc4c(c23)CCC4)CC1 [Compound I-123]"
  Reported property: "IC50"
  Obs value: "< 5 µM"
- Molecule: "NC(=O)C1CCN(c2ncnc3sc4c(c23)CCCC4)CC1 [Compound I-1]"
  Reported property: "IC50"
  Obs value: "5 to 20 µM"
- Molecule: "CN(CCC(=O)O)[C@H]1CC[C@H](Nc2ncnc3sc4c(c23)CCC4)CC1 [Compound I-108]"
  Reported property: "IC50"
  Obs value: "< 5 µM"
- Molecule: "COc1ccc(OCCN2CCN(c3ncnc4sc5c(c34)CCCC5)CC2)cc1 [Compound I-27]"
  Reported property: "IC50"
  Obs value: "5 to 20 µM"
- Molecule: "CN(Cc1cnccn1)[C@H]1CC[C@H](Nc2ncnc3sc4c(c23)CCC4)CC1 [Compound I-105]"
  Reported property: "IC50"
  Obs value: "< 5 µM"
- Molecule: "C[C@@H]1CCc2sc3ncnc(N[C@H]4CC[C@H](O)CC4)c3c2C1 [Compound I-47]"
  Reported property: "IC50"
  Obs value: "5 to 20 µM"
- Molecule: "CC1CCc2sc3ncnc(N[C@H]4CC[C@H](N)CC4)c3c2C1 (some centres unmarked) [Compound I-51]"
  Reported property: "IC50"
  Obs value: "< 5 µM"
- Molecule: "Cc1sc2ncnc(N3CCC(C(N)=O)CC3)c2c1C [Compound I-18]"
  Reported property: "IC50"
  Obs value: "20 to 50 µM"
- Molecule: "O[C@@H]1CCC[C@H](Nc2ncnc3sc4c(c23)CCC4)C1 (relative stereo) [Compound I-21]"
  Reported property: "IC50"
  Obs value: "5 to 20 µM"
- Molecule: "CC1CCc2c(sc3ncnc(N4CCC5(CC4)NC(=O)NC5=O)c23)C1 (centres unmarked) [Compound I-28]"
  Reported property: "IC50"
  Obs value: "5 to 20 µM"
- Molecule: "Cc1sc2ncnc(N3CCC(C(=O)Nc4cc(Cl)ccc4Cl)CC3)c2c1C [Compound I-32]"
  Reported property: "IC50"
  Obs value: "5 to 20 µM"
- Molecule: "O[C@H]1CC[C@H](Nc2ncnc3sc4c(c23)CCCC4)CC1 [Compound I-4]"
  Reported property: "IC50"
  Obs value: "5 to 20 µM"
- Molecule: "CNCC1CCN(c2ncnc3sc4c(c23)CCC4)CC1 [Compound I-62]"
  Reported property: "IC50"
  Obs value: "5 to 20 µM"
- Molecule: "O=C(O)[C@@H]1CC[C@H](Nc2ncnc3sc4c(c23)CCC4)C1 [Compound I-6]"
  Reported property: "IC50"
  Obs value: "20 to 50 µM"
- Molecule: "CCN(Cc1ccccc1)[C@H]1CC[C@H](Nc2ncnc3sc4c(c23)CCC4)CC1 [Compound I-120]"
  Reported property: "IC50"
  Obs value: "< 5 µM"
- Molecule: "c1nc(N[C@H]2CC[C@H](N3CCCC3)CC2)c2c3c(sc2n1)CCC3 [Compound I-142]"
  Reported property: "IC50"
  Obs value: "< 5 µM"
- Molecule: "CN(C)[C@H]1CC[C@H](N(C)c2ncnc3sc4c(c23)CCC4)CC1 [Compound I-144]"
  Reported property: "IC50"
  Obs value: "< 5 µM"
- Molecule: "CN[C@H]1CC[C@H](Nc2ncnc3sc(C)c(C)c23)CC1 [Compound I-44]"
  Reported property: "IC50"
  Obs value: "< 5 µM"
- Molecule: "FC(F)(F)CN[C@H]1CC[C@H](Nc2ncnc3sc4c(c23)CCC4)CC1 [Compound I-138]"
  Reported property: "IC50"
  Obs value: "5 to 20 µM"
- Molecule: "N[C@H]1CC[C@H](Nc2ncnc3sc4c(c23)CCCC4)CC1 [Compound I-49]"
  Reported property: "IC50"
  Obs value: "< 5 µM"
- Molecule: "CN(C)CCN1CCN(c2ncnc3sc4c(c23)CCC4)CC1 [Compound I-150]"
  Reported property: "IC50"
  Obs value: "20 to 50 µM"
- Molecule: "OCC(CO)Nc1ncnc2sc3c(c12)CCC3 [Compound I-145]"
  Reported property: "IC50"
  Obs value: "20 to 50 µM"
- Molecule: "Cc1sc2ncnc(N3CCC(C(=O)Nc4ccc(C#N)c(Cl)c4)CC3)c2c1C [Compound I-31]"
  Reported property: "IC50"
  Obs value: "5 to 20 µM"
